Target: human FPR2 (Homo sapiens (Human), UniProt P25090)
Sequence (P25090 whole entry): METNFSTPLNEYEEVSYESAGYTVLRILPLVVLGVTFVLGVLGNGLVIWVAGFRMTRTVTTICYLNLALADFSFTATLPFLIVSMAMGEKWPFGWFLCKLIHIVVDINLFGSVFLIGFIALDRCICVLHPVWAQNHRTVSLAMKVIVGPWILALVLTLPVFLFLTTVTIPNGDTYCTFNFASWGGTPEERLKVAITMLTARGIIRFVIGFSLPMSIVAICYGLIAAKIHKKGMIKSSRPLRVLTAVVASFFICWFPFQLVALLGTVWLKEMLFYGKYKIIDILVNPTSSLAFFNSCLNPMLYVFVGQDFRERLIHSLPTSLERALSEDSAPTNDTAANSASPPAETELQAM
Assay: FPR2 cyclic adenosine monophosphate (cAMP) assay
Details: CHO cells overexpressing human FPR2; forskolin 5 µM; inhibition of cAMP production; read-out: hFPR2 cAMP2 EC50
Protocol: N-formyl peptide receptors (FPRs) are a family of chemo attractant receptors that facilitate leukocyte response during inflammation. FPRs belong to the seven-transmembrane G protein-coupled receptor superfamily and are linked to inhibitory G-proteins (Gi). […] FPR2 and FPR1 Cyclic Adenosine Monophosphate (cAMP) Assays. […] The level of intracellular cAMP was determined using the HTRF HiRange cAMP assay reagent kit (Cisbio) according to manufacturer’s instruction. […]
pEC50: −log10 of the molar value.
READOUT LABEL: pEC50

A selection of reference data follows.
1) COCCn1cccc(N2C[C@@H](c3c(F)cc(OC)cc3F)[C@H](NC(=O)c3ccc(OC(F)F)cc3)C2=O)c1=O [Example 113] | 8.52
2) COc1cc(F)c([C@@H]2CN(c3ncccc3F)C(=O)[C@H]2NC(=O)c2ccc(OC(F)(F)F)cc2)c(F)c1 | 8.15

(a) COCCn1ccc(C)c(N2C[C@@H](c3c(F)cc(OC)cc3F)[C@H](NC(=O)c3ccc(OC(F)(F)F)cc3)C2=O)c1=O
(b) COc1cc(F)c([C@H]2[C@H](NC(=O)c3ccc(OC(F)F)cc3)C(=O)N(c3cccc(N4C[C@@H]5C[C@H]4CN5C)n3)[C@H]2C)c(F)c1
(c) COc1ccc([C@@H]2CN(c3cccn(CC(C)OC)c3=O)C(=O)[C@H]2NC(=O)c2ccc(OC(F)F)cc2)c(F)c1 (some centres unmarked)
I would appreciate it if you could sort these 3 molecules by pEC50, starting from the smallest number. Kindly provide the labels arranged according to the requested ordering.
a, c, b
(a: 8.32, c: 8.57, b: 8.96)

* * *

Biological target: human FPR2 (Homo sapiens (Human), UniProt P25090)
Assay: FPR2 cyclic adenosine monophosphate (cAMP) assay
Settings: CHO cells overexpressing human FPR2; forskolin 5 µM; inhibition of cAMP production; read-out: hFPR2 cAMP2 EC50
pEC50: −log10 of the molar value.
READOUT LABEL: pEC50

1. COc1cc(F)c([C@@H]2CN(c3cncn(C4CCN(C)C4)c3=O)C(=O)[C@H]2NC(=O)c2ccc(Cl)cc2)c(F)c1 (stereo partly shown) [Example 514] | 8.59
2. COc1cc(F)c([C@@H]2CN(c3nc(NC4CCOC4)ccc3F)C(=O)[C@H]2NC(=O)c2ccc(OC(F)(F)F)cc2)c(F)c1 (stereo partly shown) [Example 62] | 8.80
3. COCCn1cc(F)cc(N2C[C@@H](c3c(F)cc(OC)cc3F)[C@H](NC(=O)c3ccc(OC(F)F)cc3)C2=O)c1=O [Example 268] | 8.11

(A) COc1cc(C2CCNCC2)nc(N2C(=O)[C@@H](NC(=O)c3ccc(OC(F)F)cc3)[C@H](c3c(F)cc(OC)cc3F)[C@@H]2C)c1 [Example 529]
(B) COCCOc1ncccc1N1C[C@@H](c2c(F)cc(OC)cc2F)[C@H](NC(=O)c2ccc(Cl)cc2)C1=O [Example 413]
(C) COc1cc(F)c([C@@H]2CN(c3cccn4cc(C)nc34)C(=O)[C@H]2NC(=O)c2ccc(Cl)cc2)c(F)c1 [Example 493]
(D) COc1cc(F)c([C@@H]2CN(c3ncccc3C(F)(F)F)C(=O)[C@H]2NC(=O)c2ccc(Cl)nc2)c(F)c1 [Example 344]
I would appreciate it if you could sort these 4 molecules by pEC50, starting from the smallest number. Kindly provide the labels arranged according to the requested ordering.
D, A, C, B
